Just for reference, patent US6548515B1 is where these values come from.

- Tested on: murine leukaemia, L1210
- Assay details: Cytotoxicity in vitro (Microculture Tetrazolium Assay), L1210
- Format: cell-based
- Condition parameters: Mus musculus, 48 h; L1210 cells, incubated 2 days, inhibition of proliferation by 50%
pIC50: −log10 of the molar value.
Metric name: pIC50

| Compound | Metric name | Val |
| --- | --- | --- |
| COc1cc(C2C3=C(COC3=O)Nc3cc4c(cc32)OCO4)cc(OC)c1OC (racemic) | pIC50 | 7.92 |
| COc1cc(C2C3=C(COC3=O)N(C)c3cc4c(cc32)OCO4)cc(OC)c1OC (racemic) | pIC50 | 7.28 |
| COc1cc(CN2C3=C(C(=O)OC3)C(c3cc(OC)c(OC)c(OC)c3)c3cc4c(cc32)OCO4)cc(OC)c1O (racemic) | pIC50 | 7.21 |
